We begin with a simple list: items and their reported AC50.
Test Target: Alpha-1A adrenergic receptor (Homo sapiens); note: assay procedure not described here
Sequence (P35348 whole entry): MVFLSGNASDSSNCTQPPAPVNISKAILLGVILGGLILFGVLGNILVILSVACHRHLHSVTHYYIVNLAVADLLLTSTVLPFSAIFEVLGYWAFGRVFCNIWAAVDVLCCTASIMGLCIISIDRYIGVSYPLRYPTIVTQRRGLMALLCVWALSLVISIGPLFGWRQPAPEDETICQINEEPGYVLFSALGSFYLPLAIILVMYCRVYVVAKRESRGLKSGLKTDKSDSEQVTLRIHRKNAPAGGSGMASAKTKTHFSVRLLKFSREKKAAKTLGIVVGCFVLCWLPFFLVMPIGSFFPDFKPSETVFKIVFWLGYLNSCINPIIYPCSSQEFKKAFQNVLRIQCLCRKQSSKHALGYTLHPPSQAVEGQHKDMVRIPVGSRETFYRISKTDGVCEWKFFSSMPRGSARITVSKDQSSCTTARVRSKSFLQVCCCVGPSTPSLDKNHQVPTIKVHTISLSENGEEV
Assay type: functional, cell-based

| Molecule | Observed Measurement |
| --- | --- |
| [H]/N=C(/N)NS(=O)(=O)c1ccc(N)cc1 | > 30 µM |
| CN1CCc2c(c3ccccc3n2Cc2ccccc2)C1 [MEBHYDROLIN] | 1.07 µM |
| N=C(N)NCC1COc2ccccc2O1 (stereo unspecified) | 21.3 µM |
| CN1CCCC(CC2c3ccccc3Sc3ccccc32)C1 (stereo unspecified) | 0.586 µM |
| CC(=O)OCC(=O)[C@@]1(OC(C)=O)[C@@H](C)C[C@H]2[C@@H]3C[C@H](F)C4=CC(=O)C=C[C@]4(C)[C@@]3(F)[C@@H](O)C[C@@]21C [DIFLORASONE DIACETATE] | > 30 µM |
| C#C[C@]1(OC(C)=O)CC[C@H]2[C@@H]3CCC4=CC(=O)CC[C@@H]4[C@H]3CC[C@@]21C [NORETHINDRONE ACETATE] | 5.91 µM |
| NCC1(CC(=O)O)CCCCC1 | > 30 µM |
| O=NN(CCCl)C(=O)NC1CCCCC1 | > 3 µM |
| CO[C@H]1/C=C/O[C@@]2(C)Oc3c(C)c(O)c4c(c3C2=O)C2=NC3(CCN(CC(C)C)CC3)NC2=C(NC(=O)/C(C)=C\C=C\[C@H](C)[C@H](O)[C@@H](C)[C@@H](O)[C@@H](C)[C@H](OC(C)=O)[C@@H]1C)C4=O | > 30 µM |
| CC(C)Cc1ccc(C(C)C(=O)OCc2ccccn2)cc1 (stereo unspecified) | > 30 µM |

// CCCCC(=O)O[C@H]1CC[C@H]2[C@@H]3CCc4cc(O)ccc4[C@H]3CC[C@]12C [ESTRADIOL VALERATE] : AC50 value = > 30 µM

// `COC(=O)N(C)c1c(N)nc(-c2nn(Cc3ccccc3F)c3ncccc23)nc1N` : AC50 value = > 30 µM

// CCCCCCCCCCCCCCCC(=O)OC[C@H](COP(=O)([O-])OCC[N+](C)(C)C)OC(=O)CCCCCCCCCCCCCCC [COLFOSCERIL PALMITATE] : AC50 value = > 30 µM

// O=C(OOC(=O)c1ccccc1)c1ccccc1 [BENZOYL PEROXIDE] : AC50 value = > 30 µM

// `C=CCOc1ccc(CC(=O)O)cc1Cl` : AC50 value = > 30 µM

// `C[C@H]1C[C@H]2[C@@H]3CCC4=CC(=O)C=C[C@]4(C)[C@@]3(F)[C@@H](O)C[C@]2(C)[C@@]1(O)C(=O)CO` : AC50 value = > 30 µM

// CC(C)N1CCOC(c2cccc(C(F)(F)F)c2)C1 (stereo unspecified) : AC50 value = > 30 µM

###

Form: system (Gamma-aminobutyric acid receptor subunit alpha-1 (Rattus norvegicus)), quantity (AC50), values below. Note: assay procedure not described here.

As a guide, the following entries are already answered.
| Molecule | AC50 |
| --- | --- |
| CO/N=C(\C(=O)N[C@@H]1C(=O)N2C(C(=O)O)=C(CSc3nc(C)c(CC(=O)O)s3)CS[C@H]12)c1csc(N)n1 | > 30 µM |
| O=C(O[C@H]1C[N+]2(CCCOc3ccccc3)CCC1CC2)C(O)(c1cccs1)c1cccs1 [ACLIDINIUM BROMIDE] | > 10 µM |
| CCN(CC)CCCN(c1ccccc1)C1Cc2ccccc2C1 | > 30 µM |

# ---- query molecule ----
So the reported AC50 for CCC1(C)CC(=O)NC1=O (centres undefined) [ETHOSUXIMIDE] , on Gamma-aminobutyric acid receptor subunit alpha-1 (Rattus norvegicus), turned out to be > 10 µM

###

Test Target: Amine oxidase [flavin-containing] A (Homo sapiens); note: assay procedure not described here
Sequence (P21397 whole entry): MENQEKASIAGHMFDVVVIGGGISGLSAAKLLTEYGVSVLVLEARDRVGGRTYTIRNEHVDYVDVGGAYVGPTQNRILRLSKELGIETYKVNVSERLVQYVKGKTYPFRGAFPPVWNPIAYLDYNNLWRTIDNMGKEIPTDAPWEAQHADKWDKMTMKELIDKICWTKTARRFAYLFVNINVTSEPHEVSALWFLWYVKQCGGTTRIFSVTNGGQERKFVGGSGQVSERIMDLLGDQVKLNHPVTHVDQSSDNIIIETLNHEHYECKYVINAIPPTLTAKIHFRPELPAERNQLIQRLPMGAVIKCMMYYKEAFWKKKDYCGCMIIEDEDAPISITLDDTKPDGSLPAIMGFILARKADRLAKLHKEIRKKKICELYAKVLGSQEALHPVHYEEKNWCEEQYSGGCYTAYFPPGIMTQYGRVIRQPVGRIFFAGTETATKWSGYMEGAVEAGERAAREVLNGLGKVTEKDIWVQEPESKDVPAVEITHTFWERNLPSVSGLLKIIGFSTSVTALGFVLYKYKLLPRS
Type: functional
Parameter Measured: AC50

As a guide, the following entries are already answered.
| Chem Smiles | Observed Measurement |
| --- | --- |
| N[C@@H](Cc1ccc(N(CCCl)CCCl)cc1)C(=O)O | > 30 µM |
| COc1cccc2c1C(=O)c1c(O)c3c(c(O)c1C2=O)C[C@@](O)(C(=O)CO)C[C@@H]3O[C@H]1C[C@H](N)[C@H](O)[C@H](C)O1 | > 30 µM |
| COc1c(OCCCN2CCOCC2)ccc2c1N=C(NC(=O)c1cnc(N)nc1)N1CCN=C21 | > 30 µM |
| O=C1Nc2ccccc2C1(c1ccc(O)cc1)c1ccc(O)cc1 | > 30 µM |

# ---- query molecule ----
// `NC(=O)C1(N2CCCCC2)CCN(CCCN2c3ccccc3CCc3ccccc32)CC1` : AC50 value = > 30 µM

###

Test Target: Neuronal acetylcholine receptor subunit alpha-4 (Homo sapiens); note: assay procedure not described here
Sequence (P43681 whole entry): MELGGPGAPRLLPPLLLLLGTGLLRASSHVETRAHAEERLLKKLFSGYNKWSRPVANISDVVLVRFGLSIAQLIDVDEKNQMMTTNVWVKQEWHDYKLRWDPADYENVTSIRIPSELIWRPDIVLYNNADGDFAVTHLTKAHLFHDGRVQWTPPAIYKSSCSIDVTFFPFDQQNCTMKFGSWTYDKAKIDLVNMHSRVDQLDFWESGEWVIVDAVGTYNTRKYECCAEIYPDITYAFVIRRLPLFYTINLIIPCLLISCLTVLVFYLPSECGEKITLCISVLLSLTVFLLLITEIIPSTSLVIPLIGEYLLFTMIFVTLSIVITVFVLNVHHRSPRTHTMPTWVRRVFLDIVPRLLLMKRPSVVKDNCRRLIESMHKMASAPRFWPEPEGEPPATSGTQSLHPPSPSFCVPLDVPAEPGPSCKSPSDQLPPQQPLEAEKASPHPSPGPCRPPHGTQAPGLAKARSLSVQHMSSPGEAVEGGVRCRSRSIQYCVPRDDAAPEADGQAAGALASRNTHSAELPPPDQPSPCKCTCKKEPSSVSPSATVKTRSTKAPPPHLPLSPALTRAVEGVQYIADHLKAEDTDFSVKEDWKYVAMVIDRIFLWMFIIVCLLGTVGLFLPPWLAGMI
We begin with a simple list: items and their reported AC50.

As a guide, the following entries are already answered.
| Molecule | AC50 |
| --- | --- |
| CC1NCCOC1c1ccccc1 (stereo not drawn) [PHENMETRAZINE] | > 10 µM |
| CCCO[C@H]1[C@@H]([C@@H](COCc2ccc(Cl)cc2)OCc2ccc(Cl)cc2)OC(OCC)[C@@H]1O (stereo partly drawn) [CLOBENOSIDE] | > 30 µM |

So the reported AC50 for C[C@H](Nc1ncnc2[nH]cnc12)c1cc2cccc(Cl)c2c(=O)n1-c1ccccc1 [DUVELISIB] , on Neuronal acetylcholine receptor subunit alpha-4 (Homo sapiens), turned out to be > 30 µM

So the reported AC50 for COC(=O)c1ccc2c(c1)NC(=O)/C2=C(\Nc1ccc(N(C)C(=O)CN2CCN(C)CC2)cc1)c1ccccc1 [NINTEDANIB] , on Neuronal acetylcholine receptor subunit alpha-4 (Homo sapiens), turned out to be > 30 µM

So the reported AC50 for CN(C)CCC=C1c2ccccc2CCc2ccccc21 [AMITRIPTYLINE] , on Neuronal acetylcholine receptor subunit alpha-4 (Homo sapiens), turned out to be > 30 µM

###

Test Target: Progesterone receptor (Homo sapiens, UniProt P06401); note: assay procedure not described here
Sequence (P06401 whole entry): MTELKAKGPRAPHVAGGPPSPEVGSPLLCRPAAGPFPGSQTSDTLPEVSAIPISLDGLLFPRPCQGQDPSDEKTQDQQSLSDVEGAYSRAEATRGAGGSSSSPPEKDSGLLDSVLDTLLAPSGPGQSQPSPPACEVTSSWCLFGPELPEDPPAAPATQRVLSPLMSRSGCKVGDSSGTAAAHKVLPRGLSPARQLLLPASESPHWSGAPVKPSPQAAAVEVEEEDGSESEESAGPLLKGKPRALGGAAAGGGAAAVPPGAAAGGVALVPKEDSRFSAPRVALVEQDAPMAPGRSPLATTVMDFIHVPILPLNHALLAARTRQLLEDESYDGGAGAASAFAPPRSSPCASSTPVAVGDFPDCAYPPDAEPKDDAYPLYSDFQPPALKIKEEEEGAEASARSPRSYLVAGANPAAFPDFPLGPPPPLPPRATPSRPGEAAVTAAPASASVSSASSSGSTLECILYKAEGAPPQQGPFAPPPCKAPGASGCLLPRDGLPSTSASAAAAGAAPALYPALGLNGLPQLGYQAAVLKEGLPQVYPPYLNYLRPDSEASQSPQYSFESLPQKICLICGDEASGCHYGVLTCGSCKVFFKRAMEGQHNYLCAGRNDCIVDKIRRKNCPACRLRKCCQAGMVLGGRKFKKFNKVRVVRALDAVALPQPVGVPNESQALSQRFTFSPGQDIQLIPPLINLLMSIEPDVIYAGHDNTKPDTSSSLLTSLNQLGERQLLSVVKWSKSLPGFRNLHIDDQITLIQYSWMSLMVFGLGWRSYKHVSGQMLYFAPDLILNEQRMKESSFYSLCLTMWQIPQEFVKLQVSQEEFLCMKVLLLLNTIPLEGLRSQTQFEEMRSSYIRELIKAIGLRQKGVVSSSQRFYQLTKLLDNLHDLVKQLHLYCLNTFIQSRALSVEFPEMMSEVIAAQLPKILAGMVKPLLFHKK
Format: functional
We begin with a simple list: items and their reported AC50.

| Molecule | Test Target | AC50 |
| --- | --- | --- |
| CCC[C@@]1(CCc2ccccc2)CC(O)=C([C@H](CC)c2cccc(NS(=O)(=O)c3ccc(C(F)(F)F)cn3)c2)C(=O)O1 | Progesterone receptor (Homo sapiens, UniProt P06401) | 13 µM |

# ---- query molecule ----
// Nc1c2c(nc3ccccc13)CCCC2O (stereo not drawn) : AC50 value = > 30 µM

###

Form: system (D(3) dopamine receptor (Homo sapiens, UniProt P35462)), quantity (AC50), values below. Note: assay procedure not described here.

| Compound | Observed Measurement |
| --- | --- |
| Cc1ccc(O)c([C@H](CCN(C(C)C)C(C)C)c2ccccc2)c1 | > 10 µM |

So the reported AC50 for `NCC1(CC(=O)O)CCCCC1` , on D(3) dopamine receptor (Homo sapiens, UniProt P35462), turned out to be > 30 µM

So the reported AC50 for `CCC1(CC)C(=O)NC(=O)N(C)C1=O` , on D(3) dopamine receptor (Homo sapiens, UniProt P35462), turned out to be > 30 µM

So the reported AC50 for `c1cnc2cc3c(cc2n1)[C@@H]1CNC[C@H]3C1` , on D(3) dopamine receptor (Homo sapiens, UniProt P35462), turned out to be > 30 µM

So the reported AC50 for `CCN(C(C)=O)c1cccc(-c2ccnc3c(C#N)cnn23)c1` , on D(3) dopamine receptor (Homo sapiens, UniProt P35462), turned out to be > 30 µM

So the reported AC50 for `CCOc1ccccc1OCCN[C@H](C)Cc1ccc(OC)c(S(N)(=O)=O)c1` , on D(3) dopamine receptor (Homo sapiens, UniProt P35462), turned out to be 0.0032 µM

So the reported AC50 for `CN(C)[C@@H]1C(O)=C(C(=O)NCN2CCCC2)C(=O)[C@@]2(O)C(O)=C3C(=O)c4c(O)cccc4[C@@](C)(O)[C@H]3C[C@@H]12` , on D(3) dopamine receptor (Homo sapiens, UniProt P35462), turned out to be > 30 µM

So the reported AC50 for `CC(C)C[C@H](NC(=O)[C@H](Cc1ccccc1)NC(=O)c1cnccn1)B(O)O` , on D(3) dopamine receptor (Homo sapiens, UniProt P35462), turned out to be > 30 µM

So the reported AC50 for O=C(c1ccccc1)c1ccc2n1CCC2C(=O)O (centres undefined) , on D(3) dopamine receptor (Homo sapiens, UniProt P35462), turned out to be > 30 µM

###

Form: system (Beta-2 adrenergic receptor (Homo sapiens)), quantity (AC50), values below. Note: assay procedure not described here.

| Molecule | Test Target | AC50 |
| --- | --- | --- |
| CCC1(CC)C(=O)NC(=O)N(C)C1=O | Beta-2 adrenergic receptor (Homo sapiens) | > 10 µM |
| C[C@]12C=CC(=O)C=C1CC[C@@H]1[C@@H]2[C@@H](O)C[C@@]2(C)[C@H]1CC[C@]2(O)C(=O)CO | Beta-2 adrenergic receptor (Homo sapiens) | > 10 µM |
| CC(C)/N=c1\cc2n(-c3ccc(Cl)cc3)c3ccccc3nc-2cc1Nc1ccc(Cl)cc1 | Beta-2 adrenergic receptor (Homo sapiens) | > 30 µM |

# ---- query molecule ----
So the reported AC50 for CC(=O)SCC(Cc1ccccc1)C(=O)NCC(=O)OCc1ccccc1 (centres undefined) , on Beta-2 adrenergic receptor (Homo sapiens), turned out to be > 10 µM
